System: PPARg:RXRa IVT, anti-PPARg (NR concentration 270 nM, RXRa partner concentration 90 nM)
protocol_summary: PBM binding z-score (relative to random genomic background probes); higher = stronger binding; sequences stand for … in GC…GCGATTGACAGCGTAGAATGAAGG
Recorded PBM binding z-score determines the group label, using range 1 = under 1, range 2 = from 1 up to 6, range 3 = 6 and over

Input line: Please indicate the class for AGAATGAGGTTAAGATCACGGAAACAGAATACAT based on its PBM binding z-score.
Output line: range 2

Input line: Similarly, ATCTCTAGGTAAGACTCAGTTCAGAGAAGAACGC ?
Output line: range 2

Input line: Param item: CAGCCTAGGTTAGGGCCAGTATAGGAGGAACGTT
Output line: range 1

Input line: How about TGTCAAATTTCAAAGGTAACGTAAGTATCCACAC ?
Output line: range 2

Input line: And the next one, ATATTTAGGTTAAGGGTCATTCAGGTTGGTTCGC ?
Output line: range 3

Hey, just so you know, these numbers are from the supplement of paper PMC6555819.
